Assay: log P
Format: physicochemical
Conditions: Table 1, benzofuranyl alkanoates prepared analogously to Example 3
readout_type: logP

{"columns": ["molecule", "readout_type", "experimental_result"],
 "data": [
  ["CC(=O)Oc1coc2cc(C)ccc12 [Example 7]", "logP", 3.09],
  ["COc1ccc2c(OC(C)=O)coc2c1 [Example 8]", "logP", 2.65],
  ["CC(=O)Oc1coc2cc(C(F)(F)F)ccc12 [Example 6]", "logP", 3.38]
]}

---

Assay: log P
Type: physicochemical
Conditions: table of benzofuranone oximes prepared analogously to Example 2
readout_type: logP

{"columns": ["mol", "logP"],
 "data": [
  ["O/N=C1\\COc2cc(C(F)(F)F)ccc21", 2.38],
  ["COc1ccc2c(c1)OC/C2=N\\O", 1.52],
  ["Cc1ccc2c(c1)OC/C2=N\\O", 1.79]
]}
